Ref: the supplement of paper PMC10627819

Assign Bliss interaction score to each entry below.
Tested on: B. subtilis 168
Assay: Bliss interaction score (quartile over a dose matrix) (fitness difference); higher = more antagonism (negative = synergy)
Numbers only.

| compound | endpoint-result |
| --- | --- |
| C[C@H]1c2cccc(O)c2C(=O)C2=C(O)[C@]3(O)C(=O)C(C(N)=O)=C(O)[C@@H](N(C)C)[C@@H]3[C@@H](O)[C@@H]21 [Doxycycline] + COc1c(N2C[C@@H]3CCCN[C@@H]3C2)c(F)cc2c(=O)c(C(=O)O)cn(C3CC3)c12 [Moxifloxacin] | 0.0361 |
| C[C@@H]1O[C@@H]1P(=O)(O)O [Fosfomycin] + Oc1cc(Cl)ccc1Oc1ccc(Cl)cc1Cl [Triclosan] | -0.0701 |
| CO/N=C(\C(=O)N[C@@H]1C(=O)N2C(C(=O)O)=C(COC(N)=O)CS[C@H]12)c1ccco1 [Cefuroxime] + COc1cccc2c1C(=O)c1c(O)c3c(c(O)c1C2=O)C[C@@](O)(C(=O)CO)C[C@@H]3O[C@H]1C[C@H](N)[C@H](O)[C@H](C)O1 [Doxorubicin] | -0.158 |
| COc1ccc(C[C@H](N)C(=O)N[C@H]2[C@@H](O)[C@H](n3cnc4c(N(C)C)ncnc43)O[C@@H]2CO)cc1 [Puromycin] + CN(C)c1cc(NC(=O)CNC(C)(C)C)c(O)c2c1C[C@H]1C[C@H]3[C@H](N(C)C)C(O)=C(C(N)=O)C(=O)[C@@]3(O)C(O)=C1C2=O [Tigecycline] | -0.044 |
| N#CC(C#N)=NNc1cccc(Cl)c1 [CCCP] + CC1=C(C(=O)O)N2C(=O)[C@@H](NC(=O)[C@H](N)c3ccccc3)[C@H]2SC1 [Cephalexin] | 0.0431 |

Hey, can you go through the list below and give me Bliss interaction score for every item?
1. O=C(O)c1cn(C2CC2)c2cc(N3CCNCC3)c(F)cc2c1=O [Ciprofloxacin] + CCN(CC)CCOC(=O)c1ccc(N)cc1 [Procaine]
2. N#CC(C#N)=NNc1cccc(Cl)c1 [CCCP] + CO[C@@]12[C@H](COC(N)=O)C3=C(C(=O)C(C)=C(N)C3=O)N1C[C@@H]1N[C@@H]12 [MitomycinC]
3. CN(C)[C@@H]1C(O)=C(C(N)=O)C(=O)[C@@]2(O)C(O)=C3C(=O)c4c(O)ccc(Cl)c4[C@@](C)(O)[C@H]3C[C@@H]12 [Clortetracycline] + O=C(O[C@@H]1Cc2c(O)cc(O)cc2O[C@@H]1c1cc(O)c(O)c(O)c1)c1cc(O)c(O)c(O)c1 [EGCG]
4. CC(=O)Oc1ccccc1C(=O)O [Acetylsalicylicacid] + CCC[C@@H]1C[C@@H](C(=O)N[C@@H]([C@H]2O[C@H](SC)[C@H](O)[C@@H](O)[C@H]2O)[C@H](C)Cl)N(C)C1 [Clindamycin]

Result ::
1. -0.0792
2. -0.051
3. -0.096
4. 0.0404

###

Test system: S. aureus DSM 20231
Assay: fitness (endpoint OD595 vs no drug) (fraction); higher = more growth
Details: first compound 250 µg/mL; partner 0.125 µg/mL
Assign fitness to each entry below.

The cases that follow already have their fitness on record.
| compound | fitness |
| --- | --- |
| CC(=O)Oc1ccccc1C(=O)O [Acetylsalicylic acid] + COc1cc(Cc2cnc(N)nc2N)cc(OC)c1OC [Trimethoprim] | 0.582 |
| CC(=O)Oc1ccccc1C(=O)O [Acetylsalicylic acid] + CO/N=C(\C(=O)N[C@@H]1C(=O)N2C(C(=O)[O-])=C(C[N+]3(C)CCCC3)CS[C@H]12)c1csc(N)n1 [Cefepime] | 0.856 |
| CC(=O)Oc1ccccc1C(=O)O [Acetylsalicylic acid] + CC(=O)NC[C@H]1CN(c2ccc(N3CCOCC3)c(F)c2)C(=O)O1 [Linezolid] | 0.868 |

Now for the compound whose fitness we want.
Query :: Supply recorded fitness for CC(=O)Oc1ccccc1C(=O)O [Acetylsalicylic acid] + CC1=C\[C@@H](O)CC(=O)Cc2nc(co2)C(=O)N2CCC=C2C(=O)O[C@H](C(C)C)[C@H](C)/C=C/C(=O)NC\C=C\1 [Virginiamycin M1] here.
Result :: 0.922

###

Tested on: B. subtilis 168
Test: Bliss interaction score (quartile over a dose matrix) (fitness difference); higher = more antagonism (negative = synergy)
Lab note: anything with Bliss interaction score at or over 0.07 counts as true; the rest go in false.

See these solved cases before continuing.
| compound | assigned-class |
| --- | --- |
| COc1cccc2c1C(=O)c1c(O)c3c(c(O)c1C2=O)C[C@@](O)(C(=O)CO)C[C@@H]3O[C@H]1C[C@H](N)[C@H](O)[C@H](C)O1 [Doxorubicin] + CCN(CC)CCOC(=O)c1ccc(N)cc1 [Procaine] | true |
| C[C@@H]1O[C@@H]1P(=O)(O)O [Fosfomycin] + C[C@@H](O)[C@H]1C(=O)N2C(C(=O)O)=C(SCCNC=N)C[C@H]12 [Imipenem] | false |
| CC(=O)Oc1ccccc1C(=O)O [Acetylsalicylicacid] + COc1cc(Cc2cnc(N)nc2N)cc(OC)c1OC [Trimethoprim] | true |

Query :: Has CN(C)[C@@H]1C(O)=C(C(N)=O)C(=O)[C@@]2(O)C(O)=C3C(=O)c4c(O)ccc(Cl)c4[C@@](C)(O)[C@H]3C[C@@H]12 [Clortetracycline] + CC1(C)S[C@@H]2[C@H](NC(=O)Cc3ccccc3)C(=O)N2[C@H]1C(=O)O [PenicillinG] a recorded Bliss interaction score greater than or equal to 0.07?
Result :: true

Query :: Has O=C(O)c1cn(C2CC2)c2cc(N3CCNCC3)c(F)cc2c1=O [Ciprofloxacin] + CN[C@H](CC(C)C)C(=O)N[C@H]1C(=O)N[C@@H](CC(N)=O)C(=O)N[C@H]2C(=O)N[C@H]3C(=O)N[C@H](C(=O)N[C@H](C(=O)O)c4cc(O)cc(O)c4-c4cc3ccc4O)[C@H](O[C@H]3C[C@](C)(N)[C@@H](O)[C@H](C)O3)c3ccc(c(Cl)c3)Oc3cc2cc(c3O[C@@H]2O[C@H](CO)[C@@H](O)[C@H](O)[C@H]2O[C@H]2C[C@](C)(NCc3ccc(-c4ccc(Cl)cc4)cc3)[C@@H](O)[C@H](C)O2)Oc2ccc(cc2Cl)[C@H]1O [Oritavancin] a recorded Bliss interaction score greater than or equal to 0.07?
Result :: false

Query :: Has N#CC(C#N)=NNc1cccc(Cl)c1 [CCCP] + Cc1cc(NS(=O)(=O)c2ccc(N)cc2)no1 [Sulfamethoxazol] a recorded Bliss interaction score greater than or equal to 0.07?
Result :: false

Query :: Has C[C@H]1c2cccc(O)c2C(=O)C2=C(O)[C@]3(O)C(=O)C(C(N)=O)=C(O)[C@@H](N(C)C)[C@@H]3[C@@H](O)[C@@H]21 [Doxycycline] + CN[C@@H]1[C@H](O)[C@H](NC)[C@H]2O[C@@]3(O)C(=O)C[C@@H](C)O[C@H]3O[C@@H]2[C@H]1O [Spectinomycin] a recorded Bliss interaction score greater than or equal to 0.07?
Result :: false

###

Test system: B. subtilis 168
Test: fitness (endpoint OD595 vs no drug) (fraction); higher = more growth
Conditions: first compound 0.0195 µg/mL; partner 0.125 µg/mL
Assign fitness to each entry below.
One number for each entry.

Hey, can you go through the list below and give me fitness for every item?
1. O=C(O)c1cn(C2CC2)c2cc(N3CCNCC3)c(F)cc2c1=O [Ciprofloxacin] + COc1c(N2C[C@@H]3CCCN[C@@H]3C2)c(F)cc2c(=O)c(C(=O)O)cn(C3CC3)c12 [Moxifloxacin]
2. O=C(O)c1cn(C2CC2)c2cc(N3CCNCC3)c(F)cc2c1=O [Ciprofloxacin] + N[C@@H]1CONC1=O [Cycloserine D]
3. O=C(O)c1cn(C2CC2)c2cc(N3CCNCC3)c(F)cc2c1=O [Ciprofloxacin] + COc1cc(Cc2cnc(N)nc2N)cc(OC)c1OC [Trimethoprim]

Result ::
1: 0.0402; 2: 0.684; 3: 0.546

Query :: Supply recorded fitness for O=C(O)c1cn(C2CC2)c2cc(N3CCNCC3)c(F)cc2c1=O [Ciprofloxacin] + CCC[C@@H]1C[C@@H](C(=O)N[C@@H]([C@H]2O[C@H](SC)[C@H](O)[C@@H](O)[C@H]2O)[C@H](C)Cl)N(C)C1 [Clindamycin] here.
Result :: 0.337

###

Assign Bliss interaction score to each entry below.
System: S. aureus Newman
Experiment: Bliss interaction score (quartile over a dose matrix) (fitness difference); higher = more antagonism (negative = synergy)
Numbers only.

The cases that follow already have their Bliss interaction score on record.
| molecule | Bliss interaction score |
| --- | --- |
| CO/N=C(\C(=O)N[C@@H]1C(=O)N2C(C(=O)O)=C(COC(C)=O)CS[C@H]12)c1csc(N)n1 [Cefotaxime] + CO[C@@H]1[C@@H](OC(N)=O)[C@@H](O)[C@H](Oc2ccc3c(O)c(NC(=O)c4ccc(O)c(CC=C(C)C)c4)c(=O)oc3c2C)OC1(C)C [Novobiocin] | 0.0646 |
| O=C(O)c1cn(C2CC2)c2cc(N3CCNCC3)c(F)cc2c1=O [Ciprofloxacin] + C/C(=C\C(=O)OCCCCCCCCC(=O)O)C[C@@H]1OC[C@H](C[C@@H]2O[C@H]2[C@@H](C)[C@H](C)O)[C@@H](O)[C@H]1O [Pseudomonic acid] | 0.0616 |
| C[C@H]1c2cccc(O)c2C(=O)C2=C(O)[C@]3(O)C(=O)C(C(N)=O)=C(O)[C@@H](N(C)C)[C@@H]3[C@@H](O)[C@@H]21 [Doxycycline] + CN(C)c1cc(NC(=O)CNC(C)(C)C)c(O)c2c1C[C@H]1C[C@H]3[C@H](N(C)C)C(O)=C(C(N)=O)C(=O)[C@@]3(O)C(O)=C1C2=O [Tigecycline] | -0.0649 |
| CO/N=C(\C(=O)N[C@@H]1C(=O)N2C(C(=O)O)=C(COC(N)=O)CS[C@H]12)c1ccco1 [Cefuroxime] + N[C@@H]1CONC1=O [CycloserineD] | -0.0647 |

Hey, can you go through the list below and give me Bliss interaction score for every item?
1. C[C@@H]1O[C@@H]1P(=O)(O)O [Fosfomycin] + Cc1onc(-c2ccccc2)c1C(=O)N[C@@H]1C(=O)N2[C@@H]1SC(C)(C)[C@@H]2C(=O)O [Oxacillin]
2. CN(C)[C@@H]1C(O)=C(C(N)=O)C(=O)[C@@]2(O)C(O)=C3C(=O)c4c(O)ccc(Cl)c4[C@@](C)(O)[C@H]3C[C@@H]12 [Clortetracycline] + C[C@@H]1O[C@@H]1P(=O)(O)O [Fosfomycin]
3. CN(C)[C@@H]1C(O)=C(C(N)=O)C(=O)[C@@]2(O)C(O)=C3C(=O)c4c(O)ccc(Cl)c4[C@@](C)(O)[C@H]3C[C@@H]12 [Clortetracycline] + C/C(=C\C(=O)OCCCCCCCCC(=O)O)C[C@@H]1OC[C@H](C[C@@H]2O[C@H]2[C@@H](C)[C@H](C)O)[C@@H](O)[C@H]1O [Pseudomonic acid]
4. CO/N=C(\C(=O)N[C@@H]1C(=O)N2C(C(=O)O)=C(COC(N)=O)CS[C@H]12)c1ccco1 [Cefuroxime] + Cc1ncc([N+](=O)[O-])n1CCO [Metronidazole]

Result ::
-0.0668
-0.161
0.0209
-0.0487
